Each recorded value in this set is attributed to PubChem BioAssay AID2060493.

- System: 616215-338-R-J1-PDC tumor spheroids, viability
- Experimental Details: Anticancer human tumor 616215-338-R-J1-PDC patient-derived colon adenocarcinoma cell line growth inhibition [GQUAD]
- Condition Label: second compound 0.316 µM; first compound 0.316 µM; stronger effect = lower value; spheroids with HUVEC and MSC
- Text: DNA G-quadruplex Stabilizer Agents in Combinations in Complex Spheroids A high-throughput screen of multi-cell type tumor spheroids was designed to identify active combinations of DNA G-quadruplex stabilizer agents and targeted small molecules. […] Compounds. […] If the clinical Cmax for an agent had not been determined, the highest concentration tested was 10 microM. […]
Kindly state viability, T/C for each of the entries shown.
Give bare numbers, in %.

Record excerpt, results attached:
C=CC(=O)N1CCN(c2nc(=O)n(-c3c(C)ccnc3C(C)C)c3nc(-c4c(O)cccc4F)c(F)cc23)C(C)C1 (centres undefined) + Cc1[nH]c2ccc(F)cc2c1-c1nc2c3cccnc3c3ncccc3c2[nH]1    96.8
Cc1[nH]c2ccccc2c1CCNCc1ccc(/C=C/C(=O)NO)cc1 + Cc1[nH]c2ccc(F)cc2c1-c1nc2c3cccnc3c3ncccc3c2[nH]1    9.21
COc1cccc2c1C(=O)c1c(O)c3c(c(O)c1C2=O)CC(O)(C(=O)CO)CC3OC1CC(N)C(O)C(C)O1 (centres undefined) + Cc1[nH]c2ccc(F)cc2c1-c1nc2c3cccnc3c3ncccc3c2[nH]1    53.7

// moving on: another record for viability, T/C
Incoming: API: value(readout=viability, T/C, system=616215-338-R-J1-PDC tumor spheroids, viability) for record CCCS(=O)(=O)Nc1ccc(F)c(C(=O)c2c[nH]c3ncc(-c4ccc(Cl)cc4)cc23)c1F + CN(C)c1ccc(Nc2c3ccc(NC(=O)CCN4CCCC4)cc3nc3cc(NC(=O)CCN4CCCC4)ccc23)cc1
Outgoing: 99.7

----------
- Tested on: 616215-338-R-J1-PDC tumor spheroids, viability
- Experimental Details: Anticancer human tumor 616215-338-R-J1-PDC cell line growth inhibition [GQUAD];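 also: spheroids exposed to agents for 7 days before readout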
- Condition Label: curve of first compound; second compound 1 µM; spheroids with HUVEC and MSC
Reported Property: IC50 (nM)
Numbers only, in nM.

CCc1c2c(nc3ccc(O)cc13)-c1cc3c(c(=O)n1C2)COC(=O)[C@]3(O)CC + Cc1[nH]c2ccc(F)cc2c1-c1nc2c3cccnc3c3ncccc3c2[nH]1    12

// moving on: another record for IC50
Incoming: # lookup: IC50 of COc1cc(C2c3cc4c(cc3C(OC3OC5COC(C)OC5C(O)C3O)C3COC(=O)C23)OCO4)cc(OC)c1O (stereo not given) + CN(C)c1ccc(Nc2c3ccc(NC(=O)CCN4CCCC4)cc3nc3cc(NC(=O)CCN4CCCC4)ccc23)cc1
Outgoing: 762

----------
- Test system: 616215-338-R-J1-PDC tumor spheroids, viability
- Experimental Details: Anticancer human tumor 616215-338-R-J1-PDC cell line growth inhibition [GQUAD];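 also: spheroids exposed to agents for 7 days before readout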;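 as to viability, T/C: percent viability relative to DMSO vehicle control wells taken as 100%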
- Condition Label: second compound 1 µM; first compound 0.0316 µM; stronger effect = lower value; spheroids with HUVEC and MSC
Mark Y only when viability, T/C stays strictly below 40%. Values equal to the cut-off are N.

Below, 5 compounds whose answers are already recorded.
COc1cccc2c1C(=O)c1c(O)c3c(c(O)c1C2=O)CC(O)(C(=O)CO)CC3OC1CC(N)C(O)C(C)O1 (stereo unspecified) + Cc1cnc(CNC(=O)c2c(=O)c3ccc(N4CCCN(C)CC4)nc3n3c2sc2ccccc23)cn1    Y
COc1cccc2c1C(=O)c1c(O)c3c(c(O)c1C2=O)CC(O)(C(=O)CO)CC3OC1CC(N)C(O)C(C)O1 (stereo unspecified) + Cc1[nH]c2ccc(F)cc2c1-c1nc2c3cccnc3c3ncccc3c2[nH]1    N
CC1COCCN1c1cc(C2(S(C)(=N)=O)CC2)nc(-c2ccnc3[nH]ccc23)n1 (stereo unspecified) + Cc1cnc(CNC(=O)c2c(=O)c3ccc(N4CCCN(C)CC4)nc3n3c2sc2ccccc23)cn1    Y
COc1ncnc(C2CC2)c1-c1ncc2cnn(Cc3ccc(-c4nc(C(F)(F)F)cn4C(C)C)cc3)c2n1 + Cc1[nH]c2ccc(F)cc2c1-c1nc2c3cccnc3c3ncccc3c2[nH]1    N
COc1ccc([C@@H](O)c2cc(-c3ncnc4cc(N5CCOCC5)ccc34)c(F)cc2Cl)nn1 + Cc1[nH]c2ccc(F)cc2c1-c1nc2c3cccnc3c3ncccc3c2[nH]1    N

Incoming: Could you please tell me whether viability, T/C recorded for C=CC(=O)N1CCN(c2nc(=O)n(-c3c(C)ccnc3C(C)C)c3nc(-c4c(O)cccc4F)c(F)cc23)C(C)C1 (stereo unspecified) + Cc1cnc(CNC(=O)c2c(=O)c3ccc(N4CCCN(C)CC4)nc3n3c2sc2ccccc23)cn1 is less than 40%?
Outgoing: Y

Incoming: Could you please tell me whether viability, T/C recorded for C#Cc1c(F)ccc2cc(O)cc(-c3ncc4c(N5CC6CCC(C5)N6)nc(OCC56CCCN5CC(F)C6)nc4c3F)c12 (stereo unspecified) + Cc1[nH]c2ccc(F)cc2c1-c1nc2c3cccnc3c3ncccc3c2[nH]1 is less than 40%?
Outgoing: N
